# key: entry, value: inhibition at 1 µM
Tested on: Rab10 pThr73
experimental_protocol: Rab10 Thr73 dephosphorylation (immunoblot) in WT MEFs
Type: cell-based, mouse
setup_conditions: Mus musculus, 1 μM/24 h treatment; read-out: pRab10 inhibited in WT MEFs

Before answering, review these 2 worked examples.
CNc1nc(Nc2ccc(C(=O)N3CCN(C[C@H](C)SC(C)(C)[C@H](NC(=O)C4(F)CC4)C(=O)N4C[C@H](O)C[C@H]4C(=O)NCc4ccc(-c5scnc5C)cc4)CC3)cc2OC)ncc1Cl [XL01140]	30 to 100%
CNc1nc(Nc2ccc(C(=O)N3CCN(C[C@H]4CC[C@@H](CSC(C)(C)[C@H](NC(=O)C5(F)CC5)C(=O)N5C[C@H](O)CC5C(=O)NCc5ccc(-c6scnc6C)cc5C)CC4)CC3)cc2OC)ncc1Cl (stereo partly drawn) [XL02059]	80 to 100%

q: Find inhibition at 1 µM for CNc1nc(Nc2ccc(C(=O)N3CCN(CCOCCOCCSC(C)(C)[C@H](NC(=O)C4(F)CC4)C(=O)N4C[C@H](O)C[C@H]4C(=O)N[C@@H](C)c4ccc(-c5scnc5C)cc4)CC3)cc2OC)ncc1Cl [XL01119] on Rab10 pThr73 and write it down.
a: 30 to 100%

---

experimental_protocol: Pharmacokinetic study in mice (plasma, brain, CSF)
Assay type: in vivo, mouse
setup_conditions: male, C57BL/6, mouse, ip, brain, intraperitoneal 30 mg/Kg single dose
measured_parameter: AUC(0-t) (ng·h/mL)
Your answer should be a plain number; it is taken to be in ng·h/mL.

q: Write down AUC(0-t) measured for item CNc1nc(Nc2ccc(C(=O)N3CCN(C[C@H]4CC[C@H](CSC(C)(C)[C@H](NC(=O)C5(F)CC5)C(=O)N5C[C@H](O)CC5C(=O)NCc5ccc(-c6scnc6C)cc5)CC4)CC3)cc2OC)ncc1Cl (stereo partly shown)
a: 752

---

# key: entry, value: Dmax
target_system: LRRK2^WT (Mus musculus)
Construct: endogenous in cells; host or cells: primary wild-type mouse embryonic fibroblasts (MEFs)
Sequence (Q5S006 whole entry): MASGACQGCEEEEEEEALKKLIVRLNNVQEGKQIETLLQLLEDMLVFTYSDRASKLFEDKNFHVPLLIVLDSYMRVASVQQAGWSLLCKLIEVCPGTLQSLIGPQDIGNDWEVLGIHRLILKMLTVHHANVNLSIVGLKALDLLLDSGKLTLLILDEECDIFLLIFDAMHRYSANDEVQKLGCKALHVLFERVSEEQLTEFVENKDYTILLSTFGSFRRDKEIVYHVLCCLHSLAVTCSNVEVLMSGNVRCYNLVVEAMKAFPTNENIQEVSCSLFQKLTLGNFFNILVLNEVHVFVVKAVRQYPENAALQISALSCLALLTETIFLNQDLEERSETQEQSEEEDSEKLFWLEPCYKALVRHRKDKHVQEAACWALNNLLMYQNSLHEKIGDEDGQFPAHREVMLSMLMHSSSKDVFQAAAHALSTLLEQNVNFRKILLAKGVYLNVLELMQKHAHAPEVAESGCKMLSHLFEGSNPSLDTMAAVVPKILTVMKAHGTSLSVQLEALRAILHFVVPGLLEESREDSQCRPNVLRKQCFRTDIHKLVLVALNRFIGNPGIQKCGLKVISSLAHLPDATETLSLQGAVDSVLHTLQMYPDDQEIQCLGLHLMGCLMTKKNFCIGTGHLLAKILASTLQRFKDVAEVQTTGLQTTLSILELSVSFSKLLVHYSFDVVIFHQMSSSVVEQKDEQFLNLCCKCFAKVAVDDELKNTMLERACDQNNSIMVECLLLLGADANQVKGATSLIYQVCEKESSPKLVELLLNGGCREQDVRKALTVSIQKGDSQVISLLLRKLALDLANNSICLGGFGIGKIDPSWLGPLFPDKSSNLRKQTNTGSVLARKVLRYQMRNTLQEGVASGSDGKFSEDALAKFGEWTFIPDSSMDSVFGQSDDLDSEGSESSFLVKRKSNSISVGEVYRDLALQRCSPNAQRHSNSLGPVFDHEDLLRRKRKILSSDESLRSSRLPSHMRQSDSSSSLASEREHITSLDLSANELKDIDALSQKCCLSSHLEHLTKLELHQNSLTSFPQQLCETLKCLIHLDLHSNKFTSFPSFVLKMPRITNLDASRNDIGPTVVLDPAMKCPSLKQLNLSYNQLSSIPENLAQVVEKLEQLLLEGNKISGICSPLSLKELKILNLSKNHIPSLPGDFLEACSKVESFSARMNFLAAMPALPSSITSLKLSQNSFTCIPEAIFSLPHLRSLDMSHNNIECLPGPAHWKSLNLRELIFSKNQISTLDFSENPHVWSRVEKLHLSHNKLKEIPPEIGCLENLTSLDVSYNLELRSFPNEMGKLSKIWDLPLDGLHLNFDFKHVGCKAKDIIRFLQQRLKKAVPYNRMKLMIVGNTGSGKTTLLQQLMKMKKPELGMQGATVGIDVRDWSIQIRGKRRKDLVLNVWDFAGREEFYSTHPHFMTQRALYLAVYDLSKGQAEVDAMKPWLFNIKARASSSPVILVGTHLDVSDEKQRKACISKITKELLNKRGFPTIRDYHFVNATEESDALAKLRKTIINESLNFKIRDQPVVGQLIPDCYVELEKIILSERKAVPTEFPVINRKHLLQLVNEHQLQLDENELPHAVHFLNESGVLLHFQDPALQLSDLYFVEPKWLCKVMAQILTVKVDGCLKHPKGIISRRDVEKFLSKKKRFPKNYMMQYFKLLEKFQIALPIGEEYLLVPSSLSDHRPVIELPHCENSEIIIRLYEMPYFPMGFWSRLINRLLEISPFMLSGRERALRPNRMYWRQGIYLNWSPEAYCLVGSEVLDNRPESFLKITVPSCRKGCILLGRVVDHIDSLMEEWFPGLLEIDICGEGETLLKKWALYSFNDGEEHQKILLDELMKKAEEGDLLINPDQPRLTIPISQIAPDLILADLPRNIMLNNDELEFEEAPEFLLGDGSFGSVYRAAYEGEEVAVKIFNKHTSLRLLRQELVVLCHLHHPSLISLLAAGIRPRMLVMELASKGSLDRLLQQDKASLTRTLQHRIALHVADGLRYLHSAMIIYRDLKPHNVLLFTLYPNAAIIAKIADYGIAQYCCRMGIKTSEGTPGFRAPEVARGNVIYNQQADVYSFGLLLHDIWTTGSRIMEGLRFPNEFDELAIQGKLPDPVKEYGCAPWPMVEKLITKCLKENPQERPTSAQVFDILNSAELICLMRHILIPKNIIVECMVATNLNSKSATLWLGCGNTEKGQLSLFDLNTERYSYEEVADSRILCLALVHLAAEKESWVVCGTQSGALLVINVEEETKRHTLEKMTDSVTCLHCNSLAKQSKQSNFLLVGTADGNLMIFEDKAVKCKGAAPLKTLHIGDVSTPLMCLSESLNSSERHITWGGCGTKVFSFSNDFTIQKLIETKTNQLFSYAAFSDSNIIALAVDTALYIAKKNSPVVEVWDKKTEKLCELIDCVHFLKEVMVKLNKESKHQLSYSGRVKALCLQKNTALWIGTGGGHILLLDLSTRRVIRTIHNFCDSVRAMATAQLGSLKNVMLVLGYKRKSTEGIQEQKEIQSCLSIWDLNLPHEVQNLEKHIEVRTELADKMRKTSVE
experimental_protocol: Western blot LRRK2 degradation in WT MEFs
Type: cell-based
setup_conditions: dose response, 4 h treatment; read-out: Dmax on WT MEFs
Method: Western blot degradation assays for the LRRK2 protacs were performed with WT and PD-associated LRRK2 [G2019S] mouse embryonic fibroblasts (MEFs). The second-generation PROTACs were tested in parallel with the first generation PROTACs SD75, SD82, and SD100. The compounds were tested at 33 nM or […] concentrations for 4 hours or 24 hours, running two biological replicates per condition and achieving quantifications representative of both replicates. […]

Before answering, review these 3 worked examples.
CNc1nc(Nc2ccc(C(=O)N3CCN(C[C@H]4CC[C@@H](CSC(C)(C)[C@H](NC(=O)C5(F)CC5)C(=O)N5C[C@H](O)CC5C(=O)NCc5ccc(-c6scnc6C)cc5C)CC4)CC3)cc2OC)ncc1Cl (stereo partly shown)	77.5%
CNc1nc(Nc2ccc(C(=O)N3CCN(C[C@H]4CO[C@H](CSC(C)(C)[C@@H](NC(=O)C5(F)CC5)C(=O)N5C[C@H](O)C[C@H]5C(=O)NCc5ccc(-c6scnc6C)cc5)CO4)CC3)cc2OC)ncc1Cl	59%
CNc1nc(Nc2ccc(C(=O)N3CCN(C[C@H]4CC[C@H](CSC(C)(C)[C@H](NC(=O)C5(F)CC5)C(=O)N5C[C@H](O)CC5C(=O)N[C@@H](C)c5ccc(-c6scnc6C)cc5)CC4)CC3)cc2OC)ncc1Cl (stereo partly shown)	76.5%

q: Write down Dmax measured for item CNc1nc(Nc2ccc(C(=O)N3CCN(C[C@H]4CC[C@@H](CSC(C)(C)[C@H](NC(=O)C5(F)CC5)C(=O)N5C[C@H](O)CC5C(=O)NCc5ccc(-c6scnc6C)cc5)CC4)CC3)cc2OC)ncc1Cl (stereo partly shown)
a: 59%

q: Write down Dmax measured for item CNc1nc(Nc2ccc(C(=O)N3CCN(C[C@H]4CC[C@@H](CSC(C)(C)[C@H](NC(=O)C5(F)CC5)C(=O)N5C[C@H](O)CC5C(=O)N[C@@H](C)c5ccc(-c6scnc6C)cc5)CC4)CC3)cc2OC)ncc1Cl (stereo partly shown)
a: 71%

q: Write down Dmax measured for item CNc1nc(Nc2ccc(C(=O)N3CCC4(CCN(C[C@H]5CC[C@H](CSC(C)(C)C(NC(=O)C6(F)CC6)C(=O)N6C[C@H](O)C[C@H]6C(=O)NCc6ccc(-c7scnc7C)cc6)CC5)CC4)CC3)cc2OC)ncc1Cl (stereo partly shown)
a: 65%

---

System: LRRK2 pSer935
experimental_protocol: LRRK2 Ser935 dephosphorylation (immunoblot) in WT MEFs
Format: cell-based, mouse
setup_conditions: Mus musculus; dose response, 24 h treatment; read-out: WT MEFs pSer935 LRRK2-dephosphrylation EC50
measured_parameter: pEC50
For clarity, pEC50 is expressed as the negative log10 of concentration in mol/L.

q: Write down pEC50 measured for item CNc1nc(Nc2ccc(C(=O)N3CCN(CCOCCOCCSC(C)(C)[C@H](NC(=O)C4(F)CC4)C(=O)N4C[C@H](O)C[C@H]4C(=O)NCc4ccc(-c5scnc5C)cc4)CC3)cc2OC)ncc1Cl [SD75]
a: 6.13

---

experimental_protocol: Stability in mouse hepatocytes
Type: in vitro ADME
setup_conditions: read-out: T1/2 in mouse hepatocytes
measured_parameter: half-life (h)
Your answer should be a plain number; it is taken to be in h.

q: Write down half-life measured for item CNc1nc(Nc2ccc(C(=O)N3CCN(C[C@H]4CC[C@H](CSC(C)(C)[C@H](NC(=O)C5(F)CC5)C(=O)N5C[C@H](O)CC5C(=O)NCc5ccc(-c6scnc6C)cc5)CC4)CC3)cc2OC)ncc1Cl (stereo partly shown)
a: 5.24

---

# key: entry, value: inhibition at 1 µM
System: Rab10 pThr73
experimental_protocol: Rab10 Thr73 dephosphorylation (immunoblot) in LRRK2^G2019S MEFs
Format: cell-based, mouse
setup_conditions: Mus musculus, 1 μM/4 h treatment; read-out: pRab10 inhibited in LRRK2^G2019S MEFs

Before answering, review these 3 worked examples.
CNc1nc(Nc2ccc(C(=O)N3CCN(C[C@H]4CC[C@H](CSC(C)(C)[C@H](NC(=O)C5(F)CC5)C(=O)N5C[C@H](O)CC5C(=O)N[C@@H](C)c5ccc(-c6scnc6C)cc5)CC4)CC3)cc2OC)ncc1Cl (stereo partly drawn)	10 to 100%
CNc1nc(Nc2ccc(C(=O)N3CCN(CCOCCOCCOc4cc(-c5scnc5C)ccc4CNC(=O)[C@@H]4C[C@@H](O)CN4C(=O)[C@@H](NC(=O)C4(F)CC4)C(C)(C)C)CC3)cc2OC)ncc1Cl	30 to 95%
CNc1nc(Nc2ccc(C(=O)N3CCN(Cc4ccc(CSC(C)(C)[C@H](NC(=O)C5(F)CC5)C(=O)N5C[C@H](O)C[C@H]5C(=O)NCc5ccc(-c6scnc6C)c(F)c5)cc4)CC3)cc2OC)ncc1Cl	20 to 100%

q: Write down inhibition at 1 µM measured for item CNc1nc(Nc2ccc(C(=O)N3CCC4(CCN(C[C@H]5CC[C@H](CSC(C)(C)C(NC(=O)C6(F)CC6)C(=O)N6C[C@H](O)C[C@H]6C(=O)NCc6ccc(-c7scnc7C)cc6)CC5)CC4)CC3)cc2OC)ncc1Cl (stereo partly drawn)
a: 10 to 100%

q: Write down inhibition at 1 µM measured for item `CNc1nc(Nc2ccc(C(=O)N3CCN(CCOCCSC(C)(C)[C@H](NC(=O)C4(F)CC4)C(=O)N4C[C@H](O)C[C@H]4C(=O)NCc4ccc(-c5scnc5C)cc4)CC3)cc2OC)ncc1Cl`
a: 20 to 100%

q: Write down inhibition at 1 µM measured for item CNc1nc(Nc2ccc(OC3CCN(C[C@H]4CC[C@H](CSC(C)(C)C(NC(=O)C5(F)CC5)C(=O)N5C[C@H](O)C[C@H]5C(=O)NCc5ccc(-c6scnc6C)cc5)CC4)CC3)cc2OC)ncc1Cl (stereo partly drawn)
a: 10 to 100%

q: Write down inhibition at 1 µM measured for item `CNc1nc(Nc2ccc(C(=O)N3CCN(Cc4ccc(CSC(C)(C)[C@H](NC(=O)C5(F)CC5)C(=O)N5C[C@H](O)C[C@H]5C(=O)NCc5ccc(-c6scnc6C)cc5)cc4)CC3)cc2OC)ncc1Cl`
a: 30 to 95%

q: Write down inhibition at 1 µM measured for item CNc1nc(Nc2ccc(C(=O)N3CCN(CCOCCOCCOc4cccc(C(=O)c5csc(C6CCCN6C(=O)[C@@H](NC(=O)[C@H](C)NC)C6CCCCC6)n5)c4)CC3)cc2OC)ncc1Cl (stereo partly drawn)
a: 30 to 95%

q: Write down inhibition at 1 µM measured for item `CNc1nc(Nc2ccc(C(=O)N3CCN(CCCSC(C)(C)[C@H](NC(=O)C4(F)CC4)C(=O)N4C[C@H](O)C[C@H]4C(=O)NCc4ccc(-c5scnc5C)cc4)CC3)cc2OC)ncc1C(F)(F)F`
a: 20 to 100%
